Biological target: AM receptor (Homo sapiens, UniProt O60895+Q16602)
Construct: expressed in transfected cells; host or cells: HEK293 cell line
Sequence (Q16602 23-461): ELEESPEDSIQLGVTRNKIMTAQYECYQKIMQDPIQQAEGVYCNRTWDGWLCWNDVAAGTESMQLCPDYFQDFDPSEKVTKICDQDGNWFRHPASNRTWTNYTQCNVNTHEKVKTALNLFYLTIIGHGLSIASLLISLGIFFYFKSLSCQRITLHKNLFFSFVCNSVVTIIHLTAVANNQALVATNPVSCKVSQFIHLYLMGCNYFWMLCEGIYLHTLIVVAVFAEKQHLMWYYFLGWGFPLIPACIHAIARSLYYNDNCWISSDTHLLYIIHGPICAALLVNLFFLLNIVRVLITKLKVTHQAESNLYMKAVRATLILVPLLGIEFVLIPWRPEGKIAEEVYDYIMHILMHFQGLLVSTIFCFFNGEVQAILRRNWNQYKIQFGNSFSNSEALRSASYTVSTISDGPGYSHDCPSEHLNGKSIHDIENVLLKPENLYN
Sequence (O60895 43-175): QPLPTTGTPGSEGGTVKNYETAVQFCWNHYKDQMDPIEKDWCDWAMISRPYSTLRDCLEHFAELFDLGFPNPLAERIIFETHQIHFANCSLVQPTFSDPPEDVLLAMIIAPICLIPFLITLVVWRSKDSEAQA
Test: Intracellular cAMP concentration-increasing effect in HEK293 cell line caused to express an AM receptor;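 also: cAMP inside confluent receptor-expressing cells quantified by ELISA after 15 min exposure to each peptide at 10^−8 mol/L alongside 0.5 mM IBMX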
Format: cell-based
Details: 10^−8 mol/L, 15 minutes, 0.5 mM IBMX; percentage with respect to h.AM (1-52)
Positions of bridges follow the written chain, without caps; N, C: chain ends. GL‑2‑branched CH3O‑PEG (40k)‑CO = glycerol skeleton-containing 2-branched methoxy-PEG (40 kDa) attached via urethane (CO) linkage
Catalogue of Intracellular cAMP concentration-increasing effect (%) readings, one per entry.
measurement.name: Intracellular cAMP concentration-increasing effect (%)

| substance | recorded.value |
| --- | --- |
| CH3O-PEG (20k)-(CH2)2—CH2-^αNH-(h.AM (16-52)) ({CH3O‑PEG (20k)‑(CH2)2—CH2}-CRFGTCTVQKLAHQIYQFTDKDKDNVAPRSKISPQGY-NH2; disulfide 1-6 (inferred); ends not checked) [Compound (23)] | 97 |
| GL-2-branched CH3O-PEG (40k)-CO-^αNH-(h.AM (16-52)) ({GL‑2‑branched CH3O‑PEG (40k)‑CO}-CRFGTCTVQKLAHQIYQFTDKDKDNVAPRSKISPQGY-NH2; disulfide 1-6 (inferred); ends not checked) [Compound (33)] | 61 |
| GL-2-branched CH3O-PEG (20k)-CO-^αNH-(h.AM (16-52)) ({GL‑2‑branched CH3O‑PEG (20k)‑CO}-CRFGTCTVQKLAHQIYQFTDKDKDNVAPRSKISPQGY-NH2; disulfide 1-6 (inferred); ends not checked) [Compound (32)] | 96 |

The measurements presented in this section are drawn from patent US11478551B2.
